Just for reference, patent US4638047A is where these values come from.

biological target: human thrombin (Homo sapiens); construct: forms a lipoprotein complex with prothrombin (factor II) and cleaves it to form thrombin (factor IIa) itself; experiment: Inhibition of human thrombin hydrolysing the chromogenic substrate S-2238 (Ki by Dixon plot)
pKi: −log10 of the molar value. Residues, ends and D or L forms follow the SMILES beside them.
readout kind: pKi

1) CCNC(=O)[C@@H](NC(=O)[C@H](CCCNC(=N)N)NC(=O)[C@@H]1CCCN1C(=O)CCC(=O)[C@H](CCCNC(=N)N)NC(=O)[C@@H]1CCCN1C(=O)[C@H](N)Cc1ccccc1)C(C)C [Example H-200] (HELM PEPTIDE1{[dF].P.[N=C(N)NCCC[C@H](N[*:1])C(=O)CCC(=O)[*:2]].P.R.V.[CCN[*:1]]}$$$$V2.0) ... 5.52

(I) CC(C)(C)OC(=O)N[C@H](Cc1ccccc1)C(=O)N1CCC[C@H]1C(=O)N[C@@H](CCCNC(=N)N)CNCC(=O)N1CCC[C@H]1C(=O)O
(II) CCNC(=O)[C@@H]1CCCN1C(=O)CCC(=O)[C@@H](CCCNC(=N)N)NC(=O)[C@@H]1CCCN1C(=O)[C@@H](Cc1ccccc1)NC(=O)OC(C)(C)C
(III) CCNC(=O)[C@@H]1CCCN1C(=O)CCC(=O)[C@H](CCCNC(=N)N)NC(=O)[C@@H]1CCCN1C(=O)[C@H](N)Cc1ccccc1
(Q) Arrange the 3 compounds from largest to smallest pKi. Use the labels to give the requested order.
(A) III, II, I
